# measuredOn: full-length P. pyralis luciferase (Photinus pyralis, UniProt P08659, K549A/L550V/N119G/N50D/S548I)
# Sequence (P08659 whole entry N50D/N119G/S548I/K549A/L550V, looked up): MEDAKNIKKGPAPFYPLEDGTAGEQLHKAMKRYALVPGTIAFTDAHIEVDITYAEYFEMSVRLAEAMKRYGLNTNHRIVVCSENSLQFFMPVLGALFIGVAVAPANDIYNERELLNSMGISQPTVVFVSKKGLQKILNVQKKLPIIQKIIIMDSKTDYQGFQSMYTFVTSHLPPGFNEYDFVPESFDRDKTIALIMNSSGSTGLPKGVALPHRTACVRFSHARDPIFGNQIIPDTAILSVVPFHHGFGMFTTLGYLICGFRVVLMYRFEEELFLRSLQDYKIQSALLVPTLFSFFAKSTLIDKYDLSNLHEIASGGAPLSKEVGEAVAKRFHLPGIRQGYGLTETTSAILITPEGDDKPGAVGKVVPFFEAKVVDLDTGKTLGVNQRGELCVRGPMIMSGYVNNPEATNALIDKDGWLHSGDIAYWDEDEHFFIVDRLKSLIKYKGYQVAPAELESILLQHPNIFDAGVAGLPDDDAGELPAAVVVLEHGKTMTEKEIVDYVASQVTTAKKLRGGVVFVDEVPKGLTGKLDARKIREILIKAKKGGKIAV
# Assay type: cell-based
# conditionNotes: CC_NCI screening; full-length luciferase counter-screen; normalized to on-plate 0.3% DMSO controls
Criterion: Luciferase Assay Z-score strictly less than -2. Met: Criterion met. Not met: Criterion not met.

| molecule | assignedCategory |
| --- | --- |
| C=CCNC1=C2C[C@@H](C)C[C@H](OC)[C@H](O)[C@@H](C)/C=C(\C)[C@H](OC(N)=O)[C@@H](OC)/C=C\C=C(/C)C(=O)NC(=CC1=O)C2=O [Compound 17-AAG] | Criterion met |
| O=C(c1cc(Cc2n[nH]c(=O)c3ccccc23)ccc1F)N1CCN(C(=O)C2CC2)CC1 [AZD 2281] | Criterion not met |
| CC(C)(C#N)c1cc(Cn2cncn2)cc(C(C)(C)C#N)c1 [Anastrozole] | Criterion not met |
| CCCS(=O)(=O)Nc1ccc(F)c(C(=O)c2c[nH]c3ncc(-c4ccc(Cl)cc4)cc23)c1F [PLX4032] | Criterion met |
| CCn1c(-c2nonc2N)nc2cnc(Oc3cccc(NC(=O)c4ccc(OCCN5CCOCC5)cc4)c3)cc21 [GSK 269962A] | Criterion met |
| CCCS(=O)(=O)Nc1ccc(F)c(C(=O)c2c[nH]c3ncc(-c4ccc(Cl)cc4)cc23)c1F [Vemurafenib] | Criterion not met |
| O=C(Nc1cccc(Nc2ncc(Br)c(NCCc3cnc[nH]3)n2)c1)N1CCCC1 [BX 912, reference compound] | Criterion not met |
| CN(C)C/C=C/C(=O)Nc1cc2c(Nc3ccc(F)c(Cl)c3)ncnc2cc1O[C@H]1CCOC1 [BIBW2992] | Criterion met |
| CCOC(=O)C1=C(N)Oc2ccc(Br)cc2C1C(C#N)C(=O)OCC (stereo not drawn) [HA14-1] | Criterion not met |
| Cc1cc2c(F)c(Oc3ncnn4cc(OC[C@@H](C)O)c(C)c34)ccc2[nH]1 [Brivanib] | Criterion met |
| Cn1cc(CNCC2CCN(c3ncc(C(=O)NO)cn3)CC2)c2ccccc21 [JNJ-26481585] | Criterion not met |
| C#CCC(Cc1cnc2nc(N)nc(N)c2n1)c1ccc(C(=O)N[C@@H](CCC(=O)O)C(=O)O)cc1 (stereo partly drawn) [Pralatrexate] | Criterion not met |
| COC(=O)C[C@](O)(CCCC(C)(C)O)C(=O)O[C@@H]1C(OC)=C[C@]23CCCN2CCc2cc4c(cc2[C@H]13)OCO4 [Omacetaxine mepesuccinate] | Criterion not met |
| COC1=CC(c2cc3ccccc3[nH]2)=N/C1=C\c1[nH]c(C)cc1C [OBATOCLAX] | Criterion met |
| CN(C)C/C=C/C(=O)Nc1cc2c(Nc3ccc(F)c(Cl)c3)ncnc2cc1O[C@H]1CCOC1 [Afatinib] | Criterion met |
